Recorded measurements of IC50, one per entry
assay: cells; assay type: functional
The source made the active and inactive calls.

Examples from the recorded data:
- chemical smiles: "O=C(CCSc1ccccn1)c1ccccc1"
  IC50: "23.2 µM (active)"
- chemical smiles: "O=C(Nc1ccc(Cl)c(Cl)c1)O/N=C/c1ccncc1"
  IC50: "9.54 µM (active)"

// returns reported IC50 for input "Cn1nnc(NC(=O)COc2ccc(C3CCCCC3)cc2)n1" 23.3 µM (active)

// returns reported IC50 for input "O=C1NC(=O)C(=Cc2ccc(-c3cc(Cl)ccc3Cl)[nH]2)C(=O)N1" < 0.1 µM (active)

###

molecular target: Streptokinase A (Streptococcus pyogenes serotype M1, UniProt P10520); assay: S. pyogenes streptokinase expression inhibitors, potency, dose response, plasminogen activation absorbance, OD405 (AID 1914); format: functional, Streptococcus pyogenes M1 GAS;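 further: secreted streptokinase activity via plasminogen activation per viability signal from cell pellet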
Sequence (P10520 whole entry): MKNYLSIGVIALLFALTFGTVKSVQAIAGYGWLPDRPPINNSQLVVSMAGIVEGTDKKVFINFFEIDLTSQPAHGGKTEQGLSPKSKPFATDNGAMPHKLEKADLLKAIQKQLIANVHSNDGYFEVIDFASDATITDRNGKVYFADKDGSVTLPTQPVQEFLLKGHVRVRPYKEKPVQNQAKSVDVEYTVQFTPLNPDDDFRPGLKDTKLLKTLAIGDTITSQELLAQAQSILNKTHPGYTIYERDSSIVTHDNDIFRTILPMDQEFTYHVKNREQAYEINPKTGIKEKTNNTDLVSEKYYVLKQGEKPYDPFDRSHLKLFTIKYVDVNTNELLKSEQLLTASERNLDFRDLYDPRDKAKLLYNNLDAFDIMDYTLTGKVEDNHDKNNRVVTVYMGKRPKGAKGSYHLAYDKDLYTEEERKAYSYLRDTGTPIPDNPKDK
Activity calls are given as the source filed them.
quantity kind: EC50

The examples below pair each entry with its known result.
- molecule: "C/C(=N\\NC(=O)COc1ccc(C)cc1C(C)C)c1cc2ccccc2o1"
  subject of test: "Streptokinase A (Streptococcus pyogenes serotype M1, UniProt P10520)"
  quantity kind: "EC50"
  meas value: "30.5 µM (active)"
- molecule: "O=Nc1c2cc(-c3ccccc3)n[nH]c-2c2ccccc12"
  subject of test: "Streptokinase A (Streptococcus pyogenes serotype M1, UniProt P10520)"
  quantity kind: "EC50"
  meas value: "> 150 µM (not active)"
- molecule: "COc1ccccc1N1CC(C(=O)Nc2nnc(SCC(=O)NCC3CCCO3)s2)CC1=O (configuration not stated)"
  subject of test: "Streptokinase A (Streptococcus pyogenes serotype M1, UniProt P10520)"
  quantity kind: "EC50"
  meas value: "> 150 µM (not active)"
- molecule: "CC1Oc2cc3oc4c(O)c(O)ccc4c(=O)c3c(O)c2C1(C)C (configuration not stated) [TOXYLOXANTHONE C]"
  subject of test: "Streptokinase A (Streptococcus pyogenes serotype M1, UniProt P10520)"
  quantity kind: "EC50"
  meas value: "> 150 µM (not active)"

Entry "Cc1nc(SCC(=O)c2cccs2)c2oc3ccccc3c2n1" : reported EC50 = ? > 150 µM (not active)

Look up EC50 for this molecule: CCc1ccc2nc(O)c(C3C(C#N)=C(N)Oc4c3ccc3cccnc43)cc2c1 (configuration not stated) > 150 µM (not active)

Query (molecule): "COc1ccc(C(=O)NC(=S)Nc2ccc(N3CCOCC3)c(Cl)c2)cc1[N+](=O)[O-]" ; field requested: EC50 > 150 µM (not active)

Reported EC50, molecule COc1cc(F)ccc1CN1CCC(n2nccc2NC(=O)C2CCOC2)CC1 (configuration not stated) : ____ > 150 µM (not active)

Any idea what its EC50 is? The molecule is "CCCCCCOC(=O)/C=C/c1c(C)nc(O)nc1O" > 150 µM (not active)

Record request: EC50 value, item "Oc1c(N=NC(S)=Nc2ccccc2F)c2ccccc2n1Cc1ccccc1" > 150 µM (not active)

Please give the measured EC50 for this molecule: "CCCCNC(=O)c1ccc(NC(C)=O)c(Cl)c1" > 150 µM (not active)

###

biological target: Corticotropin-releasing factor receptor 2/Corticotropin-releasing factor-binding protein (Homo sapiens, UniProt P24387+Q13324); test: activators of CRF receptor 2 with binding protein – uHTS hits, confirmation (AID 602473); assay type: functional; conditions: read-out: EC50_Mean
Sequence (Q13324 whole entry): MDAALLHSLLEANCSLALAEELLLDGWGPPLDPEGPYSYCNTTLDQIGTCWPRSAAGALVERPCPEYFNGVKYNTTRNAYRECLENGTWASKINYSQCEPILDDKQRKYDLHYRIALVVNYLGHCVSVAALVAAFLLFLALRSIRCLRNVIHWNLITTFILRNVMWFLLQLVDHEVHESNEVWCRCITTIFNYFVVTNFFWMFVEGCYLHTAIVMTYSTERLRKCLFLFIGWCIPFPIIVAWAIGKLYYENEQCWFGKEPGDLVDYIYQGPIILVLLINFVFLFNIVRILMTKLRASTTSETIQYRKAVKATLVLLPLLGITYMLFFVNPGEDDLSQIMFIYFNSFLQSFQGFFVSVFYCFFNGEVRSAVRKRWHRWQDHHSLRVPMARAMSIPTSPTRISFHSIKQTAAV
Sequence (P24387 whole entry): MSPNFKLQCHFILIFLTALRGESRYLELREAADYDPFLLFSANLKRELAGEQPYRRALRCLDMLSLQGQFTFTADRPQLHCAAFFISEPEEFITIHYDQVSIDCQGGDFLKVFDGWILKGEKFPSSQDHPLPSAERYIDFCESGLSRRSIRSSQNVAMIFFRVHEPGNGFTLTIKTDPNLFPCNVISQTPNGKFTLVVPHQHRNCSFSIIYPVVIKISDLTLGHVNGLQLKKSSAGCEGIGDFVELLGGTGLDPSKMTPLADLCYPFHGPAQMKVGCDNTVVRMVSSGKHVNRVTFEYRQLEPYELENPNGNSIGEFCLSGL
Activity calls are given as the source filed them.
The reply should be one of these categories: active, inactive

- molecule: "Cc1ccc(S(=O)(=O)N(CC(=O)N=Nc2c(O)[nH]c3ccccc23)c2ccc(C)c(C)c2)cc1"
  group label: "inactive"
- molecule: "COc1ccc(CN2CC(=O)N(c3cccc(Cl)c3)C2=S)cc1OC"
  group label: "inactive"
- molecule: "COC(=O)c1ccc(CSc2nc3c(cnn3-c3ccc(F)cc3)c(=O)[nH]2)o1"
  group label: "inactive"

Can you look up the reported call for "COc1ccc(/N=C/c2c(O)c3ccccc3n2C(C)=O)cc1" for me? active

Please let me know the test result on file for O=C1N=C(N/N=C/c2ccc(F)cc2)SC1c1ccccc1 (stereo unspecified) . inactive

Dear colleague, could you share the recorded outcome for "CCCOc1ccc(C(=O)N2CCN(c3ccc(NC(=O)CC)cc3Cl)CC2)cc1" when you have a moment? inactive
